# test-system: NR2F6 (Homo sapiens)
# Construct: expressed in transfected cells; also transient transfection
# Sequence (P10588 1-404): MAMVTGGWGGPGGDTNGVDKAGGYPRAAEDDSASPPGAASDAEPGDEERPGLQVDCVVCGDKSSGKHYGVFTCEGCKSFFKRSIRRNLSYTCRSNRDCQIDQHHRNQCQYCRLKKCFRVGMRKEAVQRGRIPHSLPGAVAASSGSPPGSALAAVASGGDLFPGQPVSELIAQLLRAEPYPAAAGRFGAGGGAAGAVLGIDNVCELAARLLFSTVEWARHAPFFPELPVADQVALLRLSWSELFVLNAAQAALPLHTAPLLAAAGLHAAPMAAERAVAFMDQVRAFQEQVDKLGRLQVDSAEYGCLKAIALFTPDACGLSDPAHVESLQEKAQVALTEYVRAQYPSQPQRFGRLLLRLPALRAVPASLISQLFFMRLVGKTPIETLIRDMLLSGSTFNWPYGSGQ
# measurement-description: NR2F6 agonist screening, Firefly signal cmpd/DMSO
# Format: cell-based
# measurement-setup: 10 uM; clone F4
measurement-name: Firefly F4, cmpd/DMSO (mean)

Memo: CC(C)Nc1nc(N2CCCC2)nc(N2CCn3c(cccc3=O)C2)n1 [Compound 35] , reported Firefly F4, cmpd/DMSO (mean): 1.0

The molecule listed as O=c1cccc2n1CC1CC2CN(c2nc(N3CCOCC3)nc(N3CCOCC3)n2)C1 (stereo not shown) [Compound 31] shows Firefly F4, cmpd/DMSO (mean) equal to 1.0

// recorded Firefly F4, cmpd/DMSO (mean) for O=c1cccc2n1CCN(c1nc(NCC3CCCO3)nc(N3CCOCC3)n1)C2 (stereo not shown) [Compound 33] : 1.0

Just so you know, measured Firefly F4, cmpd/DMSO (mean) for COc1nc(NCCC2=CCCCC2)nc(N2CC3CC(C2)c2cccc(=O)n2C3)n1 (stereo not shown) [Compound 38] came out at 0.8

Sample COc1ccc(-c2cc3n(n2)C(N)=C(C#N)C(c2c[nH]c4ccccc24)(C(F)(F)F)N3)cc1OC (stereo not shown) [Compound Z44] ; Firefly F4, cmpd/DMSO (mean) observed: 0.8

The measured Firefly F4, cmpd/DMSO (mean) associated with CC(C)Nc1nc(N2CCOCC2)nc(N2CCn3c(cccc3=O)C2)n1 [Compound 34] reads 0.8

// Firefly F4, cmpd/DMSO (mean) lookup, molecule = COc1ccc2nc(C(F)(F)F)c(C#N)c(NCc3ccc(Cl)cc3)c2c1 [Compound Z38] , result: 0.8

For reference, reported Firefly F4, cmpd/DMSO (mean) for COc1ccc2nc(C(F)(F)F)c(C#N)c(NCCc3ccc(Cl)cc3)c2c1 [Compound Z39] stands at 1.0

Briefly, Firefly F4, cmpd/DMSO (mean) measured for O=c1cccc2n1CC1CC2CN(c2nc(Cl)nc(NCCN3CCOCC3)n2)C1 (stereo not shown) [Compound 27] : 1.0

molecule N#Cc1c(C(F)(F)F)nc2ccc(Cl)cc2c1N1CCOCC1 [Compound Z43] , Firefly F4, cmpd/DMSO (mean) observed: 0.8
